- TARGET DESC: Sterol O-acyltransferase 1 (Rattus norvegicus) (UniProt O70536)
- EXPERIMENT DESCRIPTION: In vitro acyl coenzyme A:cholesterol acyltransferase (ACAT) activity in rat liver microsome at a concentration of 10 micro g/mL
- Format: microsomes
METRIC: inhibition
For clarity, give the value followed by its unit.

// below: answered compounds
COMPOUND	inhibition
C[C@]1(O)CC(=O)OC(CSc2nc(-c3ccccc3)c(-c3ccccc3)[nH]2)C1 (stereo partly drawn)	98%
O=C1CCCC(CSc2nc(-c3ccccc3)c(-c3ccccc3)[nH]2)O1 (stereo not drawn)	95%
C[C@@]1(O)CC(=O)O[C@@H](CSc2nc(-c3ccccc3)c(-c3ccccc3)s2)C1.C[C@]1(O)CC(=O)O[C@@H](CSc2nc(-c3ccccc3)c(-c3ccccc3)s2)C1	4%
C[C@@]1(O)CC(=O)OC(CSc2nc(-c3ccc(F)cc3)c(-c3ccc(F)cc3)[nH]2)C1 (stereo partly drawn)	97%
C[C@@]1(O)CC(=O)O[C@@H](CSc2nc(-c3ccccc3)c(-c3ccccc3)o2)C1.C[C@]1(O)CC(=O)O[C@@H](CSc2nc(-c3ccccc3)c(-c3ccccc3)o2)C1	13%
CCOC(CSc1nc(-c2ccccn2)c(-c2ccccn2)[nH]1)OCC	15%
O=C(O)CCC(O)CSc1nc(-c2ccccc2)c(-c2ccccc2)[nH]1 (stereo not drawn)	76%

Let us move to another entry and its inhibition.
Retrieve inhibition on Sterol O-acyltransferase 1 (Rattus norvegicus) (UniProt O70536); query CC(O)(CC(=O)[O-])CC(O)CSc1nc(-c2ccccc2)c(-c2ccccc2)[nH]1.[Na+] (stereo not drawn)
66%

---

- TARGET DESC: UniProt:O70536
- EXPERIMENT DESCRIPTION: In vitro acyl coenzyme A:cholesterol acyltransferase (ACAT) activity in rat liver microsome at a concentration of 10 micro g/mL
- Type: microsomes
METRIC: inhibition (%)
Could you give me the number in %? Just the number is fine.

Retrieve inhibition on UniProt:O70536; query O=C(O)CCCCCSc1nc(-c2ccccc2Cl)c(-c2ccccc2Cl)[nH]1
20

Retrieve inhibition on UniProt:O70536; query C[C@@]1(O)CC(=O)O[C@@H](CSc2nc(-c3ccccc3)c(-c3ccccc3)n2-c2ccccc2)C1.C[C@]1(O)CC(=O)O[C@@H](CSc2nc(-c3ccccc3)c(-c3ccccc3)n2-c2ccccc2)C1
32

Retrieve inhibition on UniProt:O70536; query CC(O)(CC(=O)OC(C)(C)C)CC(O)CSc1nc(-c2ccc(Cl)cc2)c(-c2ccc(Cl)cc2)[nH]1 (stereo not drawn)
97

Retrieve inhibition on UniProt:O70536; query C[C@@]1(O)CC(=O)OC(CSc2nc(-c3ccccc3Cl)c(-c3ccccc3Cl)[nH]2)C1 (stereo partly drawn)
99

Retrieve inhibition on UniProt:O70536; query COc1ccc(-c2nc(S)[nH]c2-c2ccc(OC)cc2)cc1
42

Retrieve inhibition on UniProt:O70536; query CC1=CC(=O)OC(CSc2nc(-c3ccccc3Cl)c(-c3ccccc3Cl)[nH]2)C1 (stereo not drawn)
95

---

- TARGET DESC: Sterol O-acyltransferase 1 (Rattus norvegicus) (UniProt O70536)
- Sequence (whole entry): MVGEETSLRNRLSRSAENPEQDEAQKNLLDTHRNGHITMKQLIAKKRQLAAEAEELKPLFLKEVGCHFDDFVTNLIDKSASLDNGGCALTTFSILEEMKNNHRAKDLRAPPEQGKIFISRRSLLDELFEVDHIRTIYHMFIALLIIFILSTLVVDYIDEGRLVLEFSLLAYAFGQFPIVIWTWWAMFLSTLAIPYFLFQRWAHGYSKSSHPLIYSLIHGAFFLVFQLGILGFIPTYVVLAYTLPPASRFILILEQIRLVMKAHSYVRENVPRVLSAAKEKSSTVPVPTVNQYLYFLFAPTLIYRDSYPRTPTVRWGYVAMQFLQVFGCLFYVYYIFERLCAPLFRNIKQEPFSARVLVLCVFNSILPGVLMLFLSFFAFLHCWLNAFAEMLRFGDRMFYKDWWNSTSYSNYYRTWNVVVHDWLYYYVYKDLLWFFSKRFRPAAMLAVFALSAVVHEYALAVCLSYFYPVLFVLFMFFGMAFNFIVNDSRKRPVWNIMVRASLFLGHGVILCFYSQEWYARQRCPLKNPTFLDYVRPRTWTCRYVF
- EXPERIMENT DESCRIPTION: Tested in vitro for acyl coenzyme A:cholesterol acyltransferase (ACAT) activity in rat liver microsome at a concentration of 1 micro g/mL
- Assay type: microsomes
METRIC: inhibition (%)
Could you give me the number in %? Just the number is fine.

COMPOUND	UNIT SYMBOL	inhibition
C[C@@]1(O)CC(O)O[C@@H](CSc2nc(-c3ccccc3)c(-c3ccccc3)[nH]2)C1 (stereo partly drawn)	%	94
Clc1ccccc1-c1[nH]c(SCC2CCCCO2)nc1-c1ccccc1 (stereo not drawn)	%	76
c1ccc(-c2nc(SCCCC3OCCCO3)[nH]c2-c2ccccc2)cc1	%	96
O=C1CCC(CSc2nc(-c3ccccc3)c(-c3ccccc3)[nH]2)N1 (stereo not drawn)	%	87
C[C@]1(O)CC(=O)OC(CSc2nc(-c3ccccc3)n(-c3ccccc3)n2)C1 (stereo partly drawn)	%	12
C[C@@]1(O)CC(=O)OC(CSc2nc(-c3cccc(Cl)c3)c(-c3cccc(Cl)c3)[nH]2)C1 (stereo partly drawn)	%	93
CC(C)c1ccc(-c2nc(SC[C@H]3C[C@@](C)(O)CC(=O)O3)[nH]c2-c2ccc(C(C)C)cc2)cc1.CC(C)c1ccc(-c2nc(SC[C@H]3C[C@](C)(O)CC(=O)O3)[nH]c2-c2ccc(C(C)C)cc2)cc1	%	90
CO[C@@H]1C[C@@](C)(O)C[C@H](CSc2nc(-c3ccccc3)c(-c3ccccc3)[nH]2)O1	%	93

Return inhibition (reported value) for this compound: CCOC(=O)CC(C)(O)CC(O)CSc1nc(-c2ccccc2)c(-c2ccccc2)[nH]1 (stereo not drawn)
91

Return inhibition (reported value) for this compound: c1ccc(CSc2nc(-c3ccccc3)c(-c3ccccc3)[nH]2)cc1
90

Return inhibition (reported value) for this compound: O=C1CC(O)CC(CSc2nc(-c3ccccc3)c(-c3ccccc3)[nH]2)O1 (stereo not drawn)
89

Return inhibition (reported value) for this compound: CCOC(CSc1nc(-c2ccco2)c(-c2ccco2)[nH]1)OCC
34

Return inhibition (reported value) for this compound: c1ccc(-c2nc(SCCC3OCCCO3)[nH]c2-c2ccccc2)cc1
80

---

- TARGET DESC: Sterol O-acyltransferase 1 (Rattus norvegicus) (UniProt O70536)
- Sequence (whole entry): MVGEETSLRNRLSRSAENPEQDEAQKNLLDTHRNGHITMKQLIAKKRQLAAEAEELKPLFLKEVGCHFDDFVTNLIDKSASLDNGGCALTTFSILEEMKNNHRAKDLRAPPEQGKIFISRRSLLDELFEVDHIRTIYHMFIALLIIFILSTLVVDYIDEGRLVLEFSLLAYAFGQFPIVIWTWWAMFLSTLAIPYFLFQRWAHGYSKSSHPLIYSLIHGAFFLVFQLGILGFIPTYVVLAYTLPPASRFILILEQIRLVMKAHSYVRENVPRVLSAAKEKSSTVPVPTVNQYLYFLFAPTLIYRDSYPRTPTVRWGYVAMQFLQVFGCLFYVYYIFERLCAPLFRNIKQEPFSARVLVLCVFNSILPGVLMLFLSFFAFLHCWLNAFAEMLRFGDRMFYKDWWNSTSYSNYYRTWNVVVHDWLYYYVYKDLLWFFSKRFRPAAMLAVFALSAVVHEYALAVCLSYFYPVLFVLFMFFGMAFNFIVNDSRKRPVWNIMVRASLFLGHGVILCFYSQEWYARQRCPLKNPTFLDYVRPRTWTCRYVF
- EXPERIMENT DESCRIPTION: Tested in vitro for acyl coenzyme A:cholesterol acyltransferase (ACAT) activity in rat liver microsome at a concentration of 1 micro g/mL
- Type: microsomes
Lab note: compare inhibition against 90%. Equal or greater, write TRUE. Smaller, write FALSE.

Look over these answered cases.
MOLECULE	TARGET DESC	CLASS LABEL
O=C1CCCC(CSc2nc(-c3ccccc3)c(-c3ccccc3)[nH]2)N1 (configuration not stated)	Sterol O-acyltransferase 1 (Rattus norvegicus) (UniProt O70536)	FALSE
CC(O)(CC(=O)OC(C)(C)C)CC(O)CSc1nc2c3ccccc3c3ccccc3c2[nH]1 (configuration not stated)	Sterol O-acyltransferase 1 (Rattus norvegicus) (UniProt O70536)	FALSE
Cc1cccc(-c2nc(SC[C@H]3C[C@@](C)(O)CC(=O)O3)[nH]c2-c2cccc(C)c2)c1.Cc1cccc(-c2nc(SC[C@H]3C[C@](C)(O)CC(=O)O3)[nH]c2-c2cccc(C)c2)c1	Sterol O-acyltransferase 1 (Rattus norvegicus) (UniProt O70536)	TRUE
CCOC(CCSc1nc(-c2ccccc2)c(-c2ccccc2)[nH]1)OCC	Sterol O-acyltransferase 1 (Rattus norvegicus) (UniProt O70536)	TRUE
c1ccc(-c2nc(SCC3CCCCC3)[nH]c2-c2ccccc2)cc1	Sterol O-acyltransferase 1 (Rattus norvegicus) (UniProt O70536)	TRUE

Does the reported inhibition for CC1=CC(=O)OC(CSc2nc(-c3ccc(Cl)cc3)c(-c3ccc(Cl)cc3)[nH]2)C1 (configuration not stated) fall at or above the 90% mark?
FALSE

Does the reported inhibition for c1ccc(-c2nc(SCC3OCCO3)[nH]c2-c2ccccc2)cc1 fall at or above the 90% mark?
TRUE

Does the reported inhibition for COc1ccccc1-c1nc(SC[C@H]2C[C@@](C)(O)CC(=O)O2)[nH]c1-c1ccccc1OC.COc1ccccc1-c1nc(SC[C@H]2C[C@](C)(O)CC(=O)O2)[nH]c1-c1ccccc1OC fall at or above the 90% mark?
FALSE

Does the reported inhibition for CO[C@H]1O[C@H](CSc2nc(-c3ccccc3)c(-c3ccccc3)[nH]2)[C@@H](O)[C@H](O)[C@@H]1O fall at or above the 90% mark?
FALSE

Does the reported inhibition for Clc1ccc(-c2[nH]c(SCC3CCCCO3)nc2-c2ccccc2)cc1 (configuration not stated) fall at or above the 90% mark?
FALSE

Data origin, for the record: ChEMBL document CHEMBL1125365
